System: HUVEC
Experiment: Inhibition of VEGF-induced proliferation of HUVEC cells
Format: functional, cell-based
Conditions: Homo sapiens
Consider the following compounds and their measured IC50 readings.
Number in nM, nothing else.

// known answers, use as guide
structure=O=C(Nc1ccc(Cl)cc1)N1CCOc2cc(Oc3ncnc4[nH]ccc34)ccc21 scale_unit=nM value_measured=230
structure=COc1cc2nccc(Oc3ccc4c(c3)OCCN4C(=O)Nc3ccc(C)cc3)c2cc1OC scale_unit=nM value_measured=3
structure=Cc1ccc(NC(=O)N2CCOc3cc(Oc4ncnc5[nH]ccc45)ccc32)cc1 scale_unit=nM value_measured=230
structure=COc1cc2nccc(Oc3ccc4c(c3)OCCN4C(=O)Nc3ccccc3C)c2cc1OC scale_unit=nM value_measured=45
structure=COc1cc2nccc(Oc3ccc4c(c3)OCCN4C(=O)NC(C)C)c2cc1OC scale_unit=nM value_measured=52

Entry under review: `COc1cc2nccc(Oc3ccc4c(C(=O)Nc5ccc(Cl)cc5)cccc4c3)c2cc1OC` . Reported IC50?
8

Entry under review: `COc1cc2nccc(Oc3ccc4c(c3)OCCN4C(N)=O)c2cc1OC` . Reported IC50?
280

Entry under review: `CCNC(=O)N1CCOc2cc(Oc3ccnc4cc(OC)c(OC)cc34)ccc21` . Reported IC50?
23

Entry under review: `COc1cc2nccc(Oc3ccc4c(c3)OCCN4C(=O)Nc3cccc(C)c3)c2cc1OC` . Reported IC50?
0.6
